Data provenance: paper PMC10993414

# Tested on: mitochondrial membrane potential (MMP) in AREc32 cells
# run.description: Disruption of mitochondrial membrane potential (m-MPI red/green ratio), MitoOxTox
# condition.summary: logarithm of EC10; AREc32, 24 h exposure
metric.name: MMP inhibition log(EC10 (M))
The response must be a number in M with no trailing unit.

Query COc1cc2c(cc1OC)[C@@H]1C(=O)c3ccc4c(c3O[C@@H]1CO2)C=CC(C)(C)O4 yields MMP inhibition log(EC10 (M)) of -7.89

MMP inhibition log(EC10 (M)) recorded for this compound, COc1ccc2cc3[n+](cc2c1OC)CCc1cc2c(cc1-3)OCO2 , is -7.87

Memo: CC(C)(C)c1ccc(CCOc2ncnc3ccccc23)cc1 , reported MMP inhibition log(EC10 (M)): -7.93
